Provenance of the data: the supplement of paper PMC8728848

- assayed_system: Glc(a1-6)Glc(a1-6)Glc(a1-6)Glc
- method_summary: glycan array binding signal (z-score within array); higher = stronger binding
- condition_summary: glycan notation: IUPAC condensed, linker removed
The entries come from a sample that favours the strongest signals as a whole.
recorded_endpoint: glycan array binding signal (z-score)

Threefoil (Haloarcula marismortui) (protein) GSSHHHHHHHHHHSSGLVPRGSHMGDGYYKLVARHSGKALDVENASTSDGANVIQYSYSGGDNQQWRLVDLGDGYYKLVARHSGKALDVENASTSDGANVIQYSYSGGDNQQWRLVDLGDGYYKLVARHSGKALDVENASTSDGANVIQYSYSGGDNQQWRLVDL	-0.157
